- ASSAY_SUMMARY: Apparent permeability from basolateral to apical side of human Caco-2 cells at 177 uM in donor chamber after 3 hrs
- Format: ADME, cell-based
- ASSAY_SETUP: read-out: permeability
OBSERVABLE: Papp B→A at 3 h, 177 µM (×10⁻⁶ cm/s)
Give bare numbers, in ×10⁻⁶ cm/s.

Return the recorded Papp B→A at 3 h, 177 µM value; entry: CC(C)[C@H](N)C(=O)O[C@@H](C[C@@H](Cc1ccccc1)C(=O)N[C@H]1c2ccccc2C[C@H]1O)CN1CCN(Cc2cccnc2)C[C@H]1C(=O)NC(C)(C)C.O=C(O)C(F)(F)F
7.08

----------
- ASSAY_SUMMARY: Apparent permeability from apical to basolateral side of human Caco-2 cells at 9.4 uM in donor chamber after 3 hrs
- Type: ADME, cell-based
- ASSAY_SETUP: read-out: permeability
OBSERVABLE: Papp A→B at 3 h, 9.4 µM (×10⁻⁶ cm/s)
Numbers only, in ×10⁻⁶ cm/s.

Return the recorded Papp A→B at 3 h, 9.4 µM value; entry: CC(C)(C)NC(=O)[C@@H]1C[C@@H]2CCCC[C@@H]2CN1C[C@@H](O)[C@H](Cc1ccccc1)NC(=O)[C@H](CC(N)=O)NC(=O)c1ccc2ccccc2n1
3.98

----------
- ASSAY_SUMMARY: Apparent permeability from basolateral to apical side of human Caco-2 cells at 21 uM in donor chamber after 3 hrs
- Assay type: ADME, cell-based
- ASSAY_SETUP: read-out: permeability
OBSERVABLE: Papp B→A at 3 h, 21 µM (×10⁻⁶ cm/s)
Numbers only, in ×10⁻⁶ cm/s.

Return the recorded Papp B→A at 3 h, 21 µM value; entry: CC(C)[C@H](N)C(=O)O[C@H](CN1C[C@H]2CCCC[C@H]2C[C@H]1C(=O)NC(C)(C)C)[C@H](Cc1ccccc1)NC(=O)[C@H](CC(N)=O)NC(=O)c1ccc2ccccc2n1.O=C(O)C(F)(F)F
3.43

----------
- ASSAY_SUMMARY: Apparent permeability from basolateral to apical side of human Caco-2 cells at 330 uM in donor chamber after 3 hrs
- Type: ADME, cell-based
- ASSAY_SETUP: read-out: permeability
OBSERVABLE: Papp B→A at 3 h, 330 µM
Could you write the number and then its unit?

Return the recorded Papp B→A at 3 h, 330 µM value; entry: CC(C)[C@H](N)C(=O)O[C@@H]1Cc2ccccc2[C@@H]1NC(=O)[C@H](Cc1ccccc1)C[C@H](O)CN1CCN(Cc2cccnc2)C[C@H]1C(=O)NC(C)(C)C.O=C(O)C(F)(F)F
7.37 ×10⁻⁶ cm/s

----------
- ASSAY_SUMMARY: Cytotoxicity against human CEM-SS cells after 5 days by MTT assay
- Assay type: cell-based
OBSERVABLE: CC50 at 120 h (µM)
Answers are plain numbers, in µM.

Return the recorded CC50 at 120 h value; entry: Cc1c(OC(=O)CCCCCNC(=O)[C@@H](N)C(C)C)cccc1C(=O)N[C@@H](CSc1ccccc1)[C@@H](CN1C[C@H]2CCCC[C@H]2C[C@H]1C(=O)NC(C)(C)C)OC(=O)CCCCCNC(=O)[C@H](N)C(C)C.O=C(O)C(F)(F)F.O=C(O)C(F)(F)F
5

----------
- ASSAY_SUMMARY: Apparent permeability from apical to basolateral side of human Caco-2 cells at 177 uM in donor chamber after 3 hrs
- Assay type: ADME, cell-based
- ASSAY_SETUP: read-out: permeability
OBSERVABLE: Papp A→B at 3 h, 177 µM (nm/s)
Numbers only, in nm/s.

Return the recorded Papp A→B at 3 h, 177 µM value; entry: CC(C)[C@H](N)C(=O)O[C@@H](C[C@@H](Cc1ccccc1)C(=O)N[C@H]1c2ccccc2C[C@H]1O)CN1CCN(Cc2cccnc2)C[C@H]1C(=O)NC(C)(C)C.O=C(O)C(F)(F)F
51.3

----------
- ASSAY_SUMMARY: Chemical stability assessed as hydrolysis half life at pH 7.3
- Format: physicochemical
- ASSAY_SETUP: buffer
Would you kindly list half-life for each of these compounds?
Give bare numbers, in h.

// solved cases for half-life follow
{"columns": ["TEST_SMILES", "half-life (h)"],
 "data": [
  ["CC(C)[C@H](N)C(=O)O[C@H](CN1C[C@H]2CCCC[C@H]2C[C@H]1C(=O)NC(C)(C)C)[C@H](Cc1ccccc1)NC(=O)[C@H](CC(N)=O)NC(=O)c1ccc2ccccc2n1.O=C(O)C(F)(F)F", 40],
  ["CC(C)[C@H](N)C(=O)NCCCCCC(=O)O[C@@H](C[C@@H](Cc1ccccc1)C(=O)N[C@H]1c2ccccc2C[C@H]1OC(=O)CCCCCNC(=O)[C@@H](N)C(C)C)CN1CCN(Cc2cccnc2)C[C@H]1C(=O)NC(C)(C)C.O=C(O)C(F)(F)F.O=C(O)C(F)(F)F", 80],
  ["Cc1c(OC(=O)CCCCCNC(=O)[C@@H](N)C(C)C)cccc1C(=O)N[C@@H](CSc1ccccc1)[C@@H](CN1C[C@H]2CCCC[C@H]2C[C@H]1C(=O)NC(C)(C)C)OC(=O)CCCCCNC(=O)[C@H](N)C(C)C.O=C(O)C(F)(F)F.O=C(O)C(F)(F)F", 82]
]}

Return the recorded half-life value; entry: CC(C)[C@H](N)C(=O)NCCCCCC(=O)O[C@@H]1Cc2ccccc2[C@@H]1NC(=O)[C@H](Cc1ccccc1)C[C@H](O)CN1CCN(Cc2cccnc2)C[C@H]1C(=O)NC(C)(C)C.O=C(O)C(F)(F)F
72

----------
- Test system: Human immunodeficiency virus 1
- ASSAY_SUMMARY: Antiviral activity against HIV1 LAI infected in human CEM-SS cells assessed as ratio of IC50 for prodrug to IC50 for parent compound
- Type: functional

{"columns": ["TEST_SMILES", "Ratio IC50"],
 "data": [
  ["CC(C)[C@H](N)C(=O)NCCCCCC(=O)O[C@@H]1Cc2ccccc2[C@@H]1NC(=O)[C@H](Cc1ccccc1)C[C@H](O)CN1CCN(Cc2cccnc2)C[C@H]1C(=O)NC(C)(C)C.O=C(O)C(F)(F)F", ">=3.6"],
  ["CC(C)[C@H](N)C(=O)O[C@@H](C[C@@H](Cc1ccccc1)C(=O)N[C@H]1c2ccccc2C[C@H]1O)CN1CCN(Cc2cccnc2)C[C@H]1C(=O)NC(C)(C)C.O=C(O)C(F)(F)F", ">=9"],
  ["CC(C)[C@H](N)C(=O)NCCCCCC(=O)O[C@@H](C[C@@H](Cc1ccccc1)C(=O)N[C@H]1c2ccccc2C[C@H]1OC(=O)CCCCCNC(=O)[C@@H](N)C(C)C)CN1CCN(Cc2cccnc2)C[C@H]1C(=O)NC(C)(C)C.O=C(O)C(F)(F)F.O=C(O)C(F)(F)F", ">=64"],
  ["CC(C)[C@H](N)C(=O)O[C@@H]1Cc2ccccc2[C@@H]1NC(=O)[C@H](Cc1ccccc1)C[C@H](O)CN1CCN(Cc2cccnc2)C[C@H]1C(=O)NC(C)(C)C.O=C(O)C(F)(F)F", ">=1.7"]
]}
